FYI, the data here is from ChEMBL document CHEMBL1201862.

Record form. Attribute: GI50. Fill in for each entry.
system: OVCAR-5; assay: NCI tumour cell line growth inhibition, 48 h
Activity calls are given as the source filed them. No stated cut-off is given here; in the data, active = GI50 up to about 1.1 µM and inactive = higher.

Hello, I am looking for reported GI50 with OVCAR-5 for CCCCC#CS(=O)(=O)C(F)(F)F . Could you help?
> 100 µM (inactive)

Would you kindly repeat that for COc1ccccc1/C=C1/Sc2scc(CC(=O)Nc3ccccc3)[n+]2C1=O ?
47 µM (inactive)

Would you kindly repeat that for O=C(CN(C(=O)OC12CC3CC(CC(C3)C1)C2)C(=O)OC12CC3CC(CC(C3)C1)C2)Oc1ccc([N+](=O)[O-])cc1 ?
> 100 µM (inactive)

Would you kindly repeat that for CC1=C(C(=O)Nc2cccc(Cl)c2)C(c2ccccc2F)C(C(=O)Nc2cccc(Cl)c2)=C(C)N1 ?
19.3 µM (inactive)

Would you kindly repeat that for c1ccc([P+](c2ccccc2)(c2ccccc2)C2Sc3ccccc3S2)cc1 ?
19.7 µM (inactive)

Would you kindly repeat that for COc1ccc2c3c([nH]c2c1)CCN(CCCC(=O)c1ccc(F)cc1)C3 ?
13.8 µM (inactive)

Would you kindly repeat that for C/C(=C\CNc1ncnc2[nH]c(Cl)nc12)CO ?
> 100 µM (inactive)

Would you kindly repeat that for COc1ccc(CCn2cnc3ccccc32)cc1 ?
> 100 µM (inactive)

Would you kindly repeat that for CN/N=C(/Cc1occc(=O)c1O)C(=O)Nc1ccccc1C ?
> 100 µM (inactive)

Would you kindly repeat that for CC(=O)NNc1nc(C)c(C(/C=C/c2ccc(NC(C)=O)cc2)=N/NS(=O)(=O)c2ccc(C)cc2)s1 ?
> 100 µM (inactive)

Would you kindly repeat that for COc1cc(C2c3cc4c(cc3OC(Nc3ccccc3)C2C)OCO4)cc(OC)c1O (centres undefined) ?
7.96 µM (inactive)

Would you kindly repeat that for CSCC[C@@H]1C(=O)N(C)[C@H](C(C)(C)C)N1C(=O)c1ccccc1 ?
> 100 µM (inactive)

Would you kindly repeat that for O=C(O)c1ccccc1C(=O)OCC1CCCN2CCCCC12 (centres undefined) ?
> 100 µM (inactive)

Would you kindly repeat that for Cc1ccc(N2C(=O)C(=CN)C(=O)N(c3ccc(C)cc3)C2=O)cc1 ?
> 100 µM (inactive)

Would you kindly repeat that for CN1CC=C(c2c(N)nc(N)[nH]c2=O)CC1 ?
> 100 µM (inactive)

Would you kindly repeat that for Cc1cc(C(O)CCCc2ccccc2)cc(C)c1O (centres undefined) ?
43.9 µM (inactive)

Would you kindly repeat that for O=C(COc1ccccc1Cl)N1N=C(c2ccccc2)CC1(O)c1ccccc1 (centres undefined) ?
19.4 µM (inactive)

Would you kindly repeat that for CC1(C)CC2(C)CC1CC2O (centres undefined) ?
> 100 µM (inactive)

Would you kindly repeat that for O=C(/C=C/c1cccs1)c1ccc(C(=O)/C=C/c2cccs2)cc1 ?
> 100 µM (inactive)

* * *

Record form. Attribute: GI50. Fill in for each entry.
system: SF-268; assay: NCI tumour cell line growth inhibition, 48 h
The source made the active and inactive calls. Rule as the data show it: active = GI50 up to about 1.1 µM and inactive = higher.

Bench note: what GI50 did CC(=O)NNc1nc(C)c(C(/C=C/c2ccc(NC(C)=O)cc2)=N/NS(=O)(=O)c2ccc(C)cc2)s1 show?
> 100 µM (inactive)

Would you kindly repeat that for CCOC(=O)C(=O)Nc1cc(Cl)ccc1Cl ?
> 100 µM (inactive)

Would you kindly repeat that for Oc1c(Br)cc(CN(Cc2cc(Br)c(O)c(Br)c2)C2CCCCC2)cc1Br ?
> 100 µM (inactive)

Would you kindly repeat that for C[N+]1(Cc2ccc(Cl)c(Cl)c2)CCCC1C1CCCN(Cc2ccc(Cl)c(Cl)c2)C1 (stereo not drawn) ?
> 100 µM (inactive)

Would you kindly repeat that for Cc1ccc(C)c2c1n1c(=O)n(C)c(=O)n21 ?
> 100 µM (inactive)

Would you kindly repeat that for CCOC(=O)c1c(NC(=S)Nc2ccc(C)cc2)sc2c1CCN(C)C2 ?
> 100 µM (inactive)

Would you kindly repeat that for O=c1[nH]nc(Cc2ccccc2)n1/N=C/c1ccc([N+](=O)[O-])cc1 ?
> 100 µM (inactive)

Would you kindly repeat that for O=C(O)CNS(=O)(=O)c1ccc(NCc2ccccc2)cc1 ?
> 100 µM (inactive)

Would you kindly repeat that for Cc1ccc(Oc2ccc(C)cc2N)cc1 ?
97.7 µM (inactive)

Would you kindly repeat that for NCCSc1nc(N)c2ncn(C3OC(CO)C(O)C3O)c2n1 (stereo not drawn) ?
> 100 µM (inactive)

Would you kindly repeat that for Cc1nc2ccccc2nc1-c1ccc(/N=[N+](\[O-])c2ccc(-c3nc4ccccc4nc3C)cc2)cc1 ?
36.6 µM (inactive)

Would you kindly repeat that for CC1=C[C@]2(O)C(=O)[C@H](C)C[C@H]3[C@@H](CC[C@@](C)(O)/C=C\2C1=O)C3(C)C ?
20.7 µM (inactive)

Would you kindly repeat that for O=C1C(OC(=O)c2ccccc2)=C(c2ccc(O)cc2)C(=O)C(OC(=O)c2ccccc2)=C1c1ccc(O)cc1 ?
> 100 µM (inactive)
